Tested on: Plasmodium falciparum
assay.remarks: Antimalarial activity against blood stage chloroquine-sensitive Plasmodium falciparum 3D7 assessed as reduction in parasite growth incubated for 72 hrs by SYBR Green dye based fluorescence assay
Format: functional, organism-based
experimental.context: 3D7, 72 h
Where a SMILES comes first, the peptide text is derived from it. [ ]: non-standard residue; d: D form. The star is where a group is joined. Phe(Nα-CONH2) = NC(=O)N[C@@H](Cc1ccccc1)C(=O)*; NMeI = CC[C@H](C)[C@H](NC)C(=O)O; X1 = CN(/C=C\c1c[nH]c2ccccc12)*; NMeL = CN[C@@H](CC(C)C)C(=O)O; NMeV = CN[C@H](C(=O)O)C(C)C; NMeA = CN[C@@H](C)C(=O)O; For = O=C*
readout.name: IC50

Use the examples below as a reference point.
CC[C@H](C)[C@@H](C(=O)N(C)[C@@H](C)C(=O)N(C)[C@H](C(N)=O)C(C)C)N(C)C(=O)[C@H]([C@@H](C)CC)N(C)C(=O)[C@H](C)N(C)C(=O)[C@H](C(C)C)N(C)C(=O)[C@H](C)N(C)C(=O)[C@@H](NC(C)=O)C(C)C (Ac-V[NMeA][NMeV][NMeA][NMeI][NMeI][NMeA][NMeV]-NH2)	> 10 µM
CC[C@H](C)[C@@H](C(=O)NC)N(C)C(=O)[C@H](C)N(C)C(=O)[C@H](C(C)C)N(C)C(=O)[C@H](C(C)C)N(C)C(=O)[C@H](C)N(C)C(=O)[C@H](C(C)C)N(C)C(=O)[C@H](C(C)C)N(C)C(=O)[C@H](C)N(C)C(=O)[C@H](C)NC(C)=O (Ac-A[NMeA][NMeV][NMeV][NMeA][NMeV][NMeV][NMeA][NMeI]-NHMe)	> 10 µM
CC[C@H](C)[C@@H](C(N)=O)N(C)C(=O)[C@H](C(C)C)N(C)C(=O)[C@H](CC(C)C)N(C)C(=O)[C@H](Cc1ccccc1)N(C)C(=O)[C@H](Cc1ccccc1)NC=O	2.1 µM
CC[C@H](C)[C@@H](C(=O)N(C)/C=C\c1c[nH]c2ccccc12)N(C)C(=O)[C@H](C(C)C)N(C)C(=O)[C@H](C(C)C)N(C)C(=O)[C@H](CC(C)C)N(C)C(=O)[C@@H]1CCCN1C(=O)[C@H](Cc1ccccc1)NC(=O)[C@H](Cc1ccccc1)NC(C)=O (Ac-FFP[NMeL][NMeV][NMeV][NMeI]-X1)	8.65 µM
CC[C@H](C)[C@@H](C(=O)N(C)[C@H](C(=O)NC)[C@@H](C)CC)N(C)C(=O)[C@H](C(C)C)N(C)C(=O)[C@H](C)N(C)C(=O)[C@H](C(C)C)N(C)C(=O)[C@H](C(C)C)N(C)C(=O)[C@@H](NC=O)C(C)C (For-V[NMeV][NMeV][NMeA][NMeV][NMeI][NMeI]-NHMe)	> 10 µM

Items follow; give IC50 for each.
1. CNC(=O)[C@H](C(C)C)N(C)C(=O)[C@H](C(C)C)N(C)C(=O)[C@H](C(C)C)N(C)C(=O)[C@H](C)N(C)C(=O)[C@H](C)N(C)C(=O)[C@H](CC(C)C)N(C)C(=O)[C@H](C(C)C)N(C)C(=O)[C@H](Cc1ccccc1)NC=O (For-F[NMeV][NMeL][NMeA][NMeA][NMeV][NMeV][NMeV]-NHMe)
2. CNC(=O)[C@H](C(C)C)N(C)C(=O)[C@H](C(C)C)N(C)C(=O)[C@H](C(C)C)N(C)C(=O)[C@H](C)N(C)C(=O)[C@H](C)N(C)C(=O)[C@H](CC(C)C)N(C)C(=O)[C@H](C(C)C)N(C)C(=O)[C@H](Cc1ccccc1)NC(N)=O ({Phe(Nα-CONH2)}-[NMeV][NMeL][NMeA][NMeA][NMeV][NMeV][NMeV]-NHMe)

stdout:
1: 2.52 µM; 2: > 10 µM

The reported measurements were obtained from ChEMBL document CHEMBL5137130.
